Cited source for all entries: patent US4496551A

Assign pest or weed control at 100 ppm to each entry below.
System: Helminthosporium maydis
METHOD_DESCRIPTION: southern corn leaf blight control on corn seedlings
Format: in vivo
MEASUREMENT_SETUP: Bipolaris maydis, 168 h
Your answer should be a plain number; it is taken to be in %.

For Helminthosporium maydis, provide pest or weed control at 100 ppm of `CSc1ccc([Si](C)(C)Cn2ccnc2)cc1` please.
0

And `C[Si](C)(Cn1ccnc1)c1ccccc1C(F)(F)F` ?
90

And CC(C)(C)O[Si](C)(Cn1ccnc1)c1ccccc1 (centres unmarked) ?
0

And `COc1cccc(OC)c1[Si](C)(C)Cn1ccnc1` ?
50

And C[Si](Cn1ccnc1)(c1ccccc1)c1ccc(F)cc1 (centres unmarked) ?
80

And CC(C)O[Si](C)(Cn1ccnc1)c1ccccc1 (centres unmarked) ?
0

And `CC(C)(C)c1ccc([Si](C)(C)Cn2ccnc2)cc1` ?
70

And `O[Si](Cn1ccnc1)(c1ccc(F)cc1)c1ccc(F)cc1` ?
0

And `C[Si](Cn1ccnc1)(c1ccc(Cl)cc1Cl)c1ccc(Cl)cc1Cl` ?
80

And CCCC[Si](C)(Cn1ccnc1)c1ccc(-c2ccccc2)cc1 (centres unmarked) ?
0

And `C[Si](C)(Cn1ccnc1)c1ccc(Br)cc1` ?
0

And `Cc1ccc([Si](C)(C)Cn2ccnc2)cc1` ?
0

And `COc1ccc([Si](C)(C)Cn2ccnc2)cc1` ?
0

And `C[Si](C)(Cn1ccnc1)c1cc(Cl)cc(Cl)c1` ?
0

And `C[Si](Cn1ccnc1)(c1ccccc1Cl)c1ccccc1Cl` ?
90

And `COc1ccccc1[Si](C)(C)Cn1ccnc1` ?
0

And C[Si](Cn1ccnc1)(c1ccccc1)c1ccc(Cl)cc1Cl (centres unmarked) ?
0

And `C[Si](Cn1ccnc1)(c1ccc(F)cc1)c1ccc(F)cc1` ?
60

And `C[Si](C)(Cn1ccnc1)c1cccc(-c2ccccc2)c1` ?
90

And `CCCCCCCCCCCCCCCCCC[Si](C)(C)Cn1ccnc1` ?
0

* * *

Assign inhibition of growth at 100 ppm to each entry below.
Tested on: Monilinia fructicola
METHOD_DESCRIPTION: stone fruit brown rot colony growth inhibition on canned peach halves
Type: cell-based
MEASUREMENT_SETUP: 120 h, dipped 3 minutes, five days, percent growth inhibition of colonies, read-out: % Control Brown Rot
Procedure: Several compounds of the previous examples were again dissolved in acetone in an amount equal to 5% of the final volume and then suspended at a concentration of 100 ppm in purified water containing 700 ppm of the surfactant TREM 014 (polyhydric alcohol esters). Canned peach halves were dipped in this suspension for three minutes and then placed to air dry in sterile containers. […] At that time the radii of the colonies' growth were measured on each peach. […]

I have this molecule here, CCCC[Si](C)(Cn1ccnc1)c1ccc(Cl)cc1 (stereo not drawn) , and I need its recorded inhibition of growth at 100 ppm.
45%

And C[Si](Cn1ccnc1)(c1ccccc1)c1ccc(Cl)cc1 (stereo not drawn) ?
45%

And C[Si](Cn1ccnc1)(c1ccccc1)c1ccc(F)cc1 (stereo not drawn) ?
65%

And `C[Si](C)(Cn1ccnc1)c1ccc(Cl)cc1Cl` ?
100%

And `C[Si](C)(Cn1ccnc1)c1ccc(Oc2ccccc2)cc1` ?
80%

And `C[Si](C)(Cn1ccnc1)c1ccc(-c2ccccc2)cc1` ?
83%
